Target desc: COX-2 (Mus musculus)
Construct: endogenous in cells; host or cells: RAW264.7 murine macrophages, stimulated with LPS and IFN-g
Sequence (Q05769 18-604): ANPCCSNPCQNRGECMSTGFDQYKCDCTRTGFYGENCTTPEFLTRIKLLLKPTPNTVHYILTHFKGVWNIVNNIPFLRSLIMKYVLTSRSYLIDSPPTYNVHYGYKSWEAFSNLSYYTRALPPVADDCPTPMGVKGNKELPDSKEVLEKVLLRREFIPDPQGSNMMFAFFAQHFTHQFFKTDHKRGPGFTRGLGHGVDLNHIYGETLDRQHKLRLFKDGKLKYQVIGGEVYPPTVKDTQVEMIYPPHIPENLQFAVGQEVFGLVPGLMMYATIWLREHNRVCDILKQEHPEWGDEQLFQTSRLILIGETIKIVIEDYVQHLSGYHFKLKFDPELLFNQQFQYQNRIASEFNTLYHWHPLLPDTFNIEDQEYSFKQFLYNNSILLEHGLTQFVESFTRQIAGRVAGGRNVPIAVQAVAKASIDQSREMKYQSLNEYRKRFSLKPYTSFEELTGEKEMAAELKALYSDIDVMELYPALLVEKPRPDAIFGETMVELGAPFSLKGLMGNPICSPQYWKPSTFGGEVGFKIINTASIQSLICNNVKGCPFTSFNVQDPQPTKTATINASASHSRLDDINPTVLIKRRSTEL
Test details: Cell-based COX-2 assay (PGE2 in LPS/IFN-g stimulated RAW264.7 cells)
Measurement parameters: RAW264.7 murine macrophages, 1 μg/ml LPS and 10 U/ml IFN-g for 7 h, PGE2 readout
Measured metric: IC50 (µM)
Return type: number; implicit unit µM.

Take a look at these entries with their results.
compound="COc1ccc2c(c1)c(CCNC(=O)CC[N+]13CC[S][Re-]14(=[O])[S]CC[N]4C(=O)C3)c(C)n2C(=O)c1ccc(Cl)cc1 (stereo not drawn)" experimental_result=1.6
compound=COc1ccc2c(c1)c(CC(=O)NCCCCCCNC(=O)[c-]1cccc1)c(C)n2C(=O)c1ccc(Cl)cc1.[C-]#[O+].[C-]#[O+].[C-]#[O+].[Re+] experimental_result=0.4

Sample COc1ccc2c(c1)c(CC(=O)NCCCCC[N+]13CC[S][Re-]14(=[O])[S]CC[N]4C(=O)C3)c(C)n2C(=O)c1ccc(Cl)cc1 (stereo not drawn) ; IC50 observed: 0.3

* * *

Target desc: human COX-2 (Homo sapiens)
Construct: purchased Cayman Chemical Co., Ann Arbor, Mich., USA 701080
Sequence (P35354 18-604): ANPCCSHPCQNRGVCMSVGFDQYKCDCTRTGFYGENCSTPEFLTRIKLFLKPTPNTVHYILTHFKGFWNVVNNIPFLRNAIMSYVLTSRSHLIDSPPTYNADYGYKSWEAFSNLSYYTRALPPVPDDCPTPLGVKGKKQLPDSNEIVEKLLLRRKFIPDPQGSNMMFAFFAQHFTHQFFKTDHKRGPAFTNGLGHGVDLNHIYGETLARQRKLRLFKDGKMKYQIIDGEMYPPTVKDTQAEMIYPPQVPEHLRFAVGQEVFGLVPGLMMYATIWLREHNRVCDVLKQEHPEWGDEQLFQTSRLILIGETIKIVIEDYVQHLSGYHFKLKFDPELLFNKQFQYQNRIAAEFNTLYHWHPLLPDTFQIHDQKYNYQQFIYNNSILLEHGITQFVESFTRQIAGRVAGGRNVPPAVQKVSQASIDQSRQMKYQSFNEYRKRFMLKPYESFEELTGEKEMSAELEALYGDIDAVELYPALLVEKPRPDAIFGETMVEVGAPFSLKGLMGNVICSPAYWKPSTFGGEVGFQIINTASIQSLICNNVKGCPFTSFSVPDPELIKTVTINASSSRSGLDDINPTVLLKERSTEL
Test details: COX-2 enzyme assay (EIA kit, PGF2α readout)
Assay type: biochemical
Measurement parameters: human COX-2 enzyme, EIA; 15 min pre-incubation at 37° C.; read-out: COX-2 IC50 (μM) enzyme
Measured metric: IC50 (µM)
Return type: number; implicit unit µM.

compound="COc1ccc2c(c1)c(CC(=O)NCCC(C)(C)CCNC(=O)c1ccc[cH-]1)c(C)n2C(=O)c1ccc(Cl)cc1.[C-]#[O+].[C-]#[O+].[C-]#[O+].[Re+] [Compound 309]" measured_metric=IC50 experimental_result=0.5
compound="COc1ccc2c(c1)c(CC(=O)NCCCCC(C)(C)NC(=O)c1ccc[cH-]1)c(C)n2C(=O)c1ccc(Cl)cc1.[C-]#[O+].[C-]#[O+].[C-]#[O+].[Re+] [Compound 312]" measured_metric=IC50 experimental_result=0.1
compound="COc1ccc2c(c1)c(CC(=O)NCCCCNC(=O)C[N]1C(=O)C[N]3C(=O)C[N]4C(=O)C[S][Re]143=[O])c(C)n2C(=O)c1ccc(Cl)cc1 [Compound 23]" measured_metric=IC50 experimental_result=12
compound="[2H]C([2H])([2H])Oc1ccc2c(c1)c(CC(=O)NCCCCCC[N+]13CC[S][Re-]14(=[O])[S]CC[N]4C(=O)C3)c(C)n2C(=O)c1ccc(Cl)cc1 (stereo not shown) [Compound 346]" measured_metric=IC50 experimental_result=0.3
compound="COc1ccc2c(c1)c(CC(=O)NCCCCCC[N+]13CC[S][Re-]14(=[O])[S]CC[N]4C(=O)C3)c(C)n2C(=O)c1ccc(Cl)cc1 (stereo not shown) [Compound 260]" measured_metric=IC50 experimental_result=0.3

Sample CCOC(=O)C1C[S][Re]23(=[O])[S]CC(C(=O)NCCOCCOCCNC(=O)Cc4c(C)n(C(=O)c5ccc(Cl)cc5)c5ccc(OC)cc45)[N]2CC[N]13 (stereo not shown) [Compound 178] ; IC50 observed: 0.2

Sample COc1ccc2c(c1)c(CC(=O)NCCCCCCNC(=O)C[N]1C(=O)C[N]3C(=O)C[N]4C(=O)C[S][Re]143=[O])c(C)n2C(=O)c1ccc(Cl)cc1 [Compound 27] ; IC50 observed: 0.6

Sample COc1ccc2c(c1)c(CC(=O)NCCOCCOCCOCCNC(=O)[c-]1cccc1)c(C)n2C(=O)c1ccc(Cl)cc1.[C-]#[O+].[C-]#[O+].[C-]#[O+].[Re+] [Compound 248] ; IC50 observed: 0.2

Sample CCOC(=O)C1C[S][Re]23(=[O])[S]CC(C(=O)NCCCCCCCNC(=O)Cc4c(C)n(C(=O)c5ccc(Cl)cc5)c5ccc(OC)cc45)[N]2CC[N]13 (stereo not shown) [Compound 182] ; IC50 observed: 0.8

// provenance: patent US9850183B2
